- Tgt: 5HT7 (Homo sapiens)
- Sequence (P34969 whole entry): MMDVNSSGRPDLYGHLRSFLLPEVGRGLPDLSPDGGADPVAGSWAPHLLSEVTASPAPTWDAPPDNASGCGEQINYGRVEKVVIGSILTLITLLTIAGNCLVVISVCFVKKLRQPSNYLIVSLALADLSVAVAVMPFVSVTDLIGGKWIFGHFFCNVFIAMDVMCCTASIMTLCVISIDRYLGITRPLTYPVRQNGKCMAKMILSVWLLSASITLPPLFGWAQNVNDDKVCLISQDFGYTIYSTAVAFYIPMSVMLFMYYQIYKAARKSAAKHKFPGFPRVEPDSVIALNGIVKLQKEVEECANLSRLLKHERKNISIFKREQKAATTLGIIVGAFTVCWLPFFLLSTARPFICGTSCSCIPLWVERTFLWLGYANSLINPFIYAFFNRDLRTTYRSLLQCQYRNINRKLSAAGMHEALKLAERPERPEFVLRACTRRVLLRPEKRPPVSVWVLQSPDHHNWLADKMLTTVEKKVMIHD
- Method Summary: 5HT7 function, Gs-cAMP signaling (HEK293 cells)
- Format: cell-based
- Design: ATCC CRL-1573 (cells)
- Conditions: cAMP signaling
Assay Readout: Function at 5HT7

>  <Compound>
CN(C)[C@H]1CCc2c(cccc2-c2cccc3ccccc23)C1 [(S)-5-NaT]

>  <Tgt>
5HT7 (Homo sapiens)

>  <Assay Readout>
Function at 5HT7

>  <Reported>
Partial agonist

$$$$
>  <Compound>
Cc1nn(C)c(C)c1-c1cccc2c1CC[C@H](N(C)C)C2 [(S)-AS-19, reference compound]

>  <Tgt>
5HT7 (Homo sapiens)

>  <Assay Readout>
Function at 5HT7

>  <Reported>
Partial agonist

$$$$
>  <Compound>
CCCN(CCC)[C@H]1CCc2c(cccc2-c2ccccc2)C1.Cl [(S)-5-PPT]

>  <Tgt>
5HT7 (Homo sapiens)

>  <Assay Readout>
Function at 5HT7

>  <Reported>
Full agonist

$$$$
>  <Compound>
CN(C)[C@H]1CCc2c(cccc2-c2ccccc2Cl)C1.Cl [(S)-5-CPT]

>  <Tgt>
5HT7 (Homo sapiens)

>  <Assay Readout>
Function at 5HT7

>  <Reported>
Partial agonist

$$$$

Pending compound:
IN: Answer with the recorded Function at 5HT7 of CCCN(CCC)[C@H]1CCc2c(cccc2-c2ccccc2Cl)C1 [(S)-5-CPPT] only.
OUT: Full agonist

---

- Method Summary: Plasma and brain concentrations by LC-MS/MS after systemic administration
- Type: in vivo, mouse
- Conditions: mouse, brain; 3.0 mg/kg subcutaneous, 30 min after injection, mean (SEM); read-out: Brain concentration
Assay Readout: concentration at 30 min

IN: Answer with the recorded concentration at 30 min of CN(C)[C@H]1CCc2c(cccc2-c2ccccc2F)C1.Cl [(S)-5-FPT, HCl] only.
OUT: 1780 ng/g

---

- Tgt: UniProt P28335
- Sequence (P28335 33-458): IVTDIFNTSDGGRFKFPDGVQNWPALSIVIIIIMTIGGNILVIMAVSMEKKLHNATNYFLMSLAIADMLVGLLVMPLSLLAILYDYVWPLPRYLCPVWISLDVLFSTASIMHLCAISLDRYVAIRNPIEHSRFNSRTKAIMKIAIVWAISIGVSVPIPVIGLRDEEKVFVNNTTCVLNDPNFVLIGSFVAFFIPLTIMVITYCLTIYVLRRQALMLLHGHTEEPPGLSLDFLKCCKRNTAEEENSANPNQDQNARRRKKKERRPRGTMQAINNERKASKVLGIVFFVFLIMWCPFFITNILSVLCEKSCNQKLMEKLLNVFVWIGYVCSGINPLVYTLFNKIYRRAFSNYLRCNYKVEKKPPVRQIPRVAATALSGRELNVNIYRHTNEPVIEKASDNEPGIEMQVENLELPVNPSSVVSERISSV
- Method Summary: 5HT2C functional assay
- Conditions: read-out: EC50 at 5HT2C receptors (agonist)
Assay Readout: pEC50
pEC50 is a log-scale quantity: -log10 of the concentration expressed in molar.

IN: Give reported pEC50 for CN(C)[C@H]1CCc2c(cccc2-c2ccccc2F)C1.Cl [(S)-5-FPT, HCl] (UniProt P28335)
OUT: 6.64

---

- Tgt: 5HT7 (Homo sapiens)
- Method Summary: 5HT7 function, Gs-cAMP signaling (HEK293 cells)
- Format: cell-based
- Design: ATCC CRL-1573 (cells)
Exercise: for every item that follows, state its recorded pEC50.
pEC50 is a log-scale quantity: -log10 of the concentration expressed in molar.

IN: Answer with the recorded pEC50 of CN(C)[C@H]1CCc2c(cccc2-c2ccccc2F)C1.Cl [(S)-5-FPT, HCl] only.
OUT: 7.47

IN: Answer with the recorded pEC50 of "CN(C)[C@@H]1CCc2c(cccc2-c2ccccc2F)C1" only.
OUT: 6.42

---

- Tgt: 5HT2A receptors (Homo sapiens)
- Sequence (P28223 whole entry): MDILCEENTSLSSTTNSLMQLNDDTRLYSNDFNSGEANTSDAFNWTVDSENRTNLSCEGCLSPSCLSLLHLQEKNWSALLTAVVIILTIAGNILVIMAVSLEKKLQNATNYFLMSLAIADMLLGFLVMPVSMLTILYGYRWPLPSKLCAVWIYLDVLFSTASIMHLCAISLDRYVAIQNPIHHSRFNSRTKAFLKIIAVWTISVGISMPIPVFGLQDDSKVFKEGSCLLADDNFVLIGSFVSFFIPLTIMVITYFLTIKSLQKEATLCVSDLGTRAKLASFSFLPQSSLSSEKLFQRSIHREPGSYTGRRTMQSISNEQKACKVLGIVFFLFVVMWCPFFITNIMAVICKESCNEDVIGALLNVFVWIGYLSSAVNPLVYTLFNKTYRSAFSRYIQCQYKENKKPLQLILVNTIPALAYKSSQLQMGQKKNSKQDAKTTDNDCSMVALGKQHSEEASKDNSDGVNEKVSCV
pKi: −log10 of the molar value.
Assay Readout: pKi

IN: Answer with the recorded pKi of CN(C)[C@H]1CCc2c(cccc2-c2ccccc2F)C1.Cl [(S)-5-FPT, HCl] only.
OUT: ~6.05

IN: Answer with the recorded pKi of CN(C)[C@H]1CCc2c(cccc2-c2ccccc2Cl)C1.Cl [(S)-5-CPT, HCl] only.
OUT: ~6.30

---

- Tgt: 5HT1A (Homo sapiens, UniProt P08908)
- Sequence (P08908 whole entry): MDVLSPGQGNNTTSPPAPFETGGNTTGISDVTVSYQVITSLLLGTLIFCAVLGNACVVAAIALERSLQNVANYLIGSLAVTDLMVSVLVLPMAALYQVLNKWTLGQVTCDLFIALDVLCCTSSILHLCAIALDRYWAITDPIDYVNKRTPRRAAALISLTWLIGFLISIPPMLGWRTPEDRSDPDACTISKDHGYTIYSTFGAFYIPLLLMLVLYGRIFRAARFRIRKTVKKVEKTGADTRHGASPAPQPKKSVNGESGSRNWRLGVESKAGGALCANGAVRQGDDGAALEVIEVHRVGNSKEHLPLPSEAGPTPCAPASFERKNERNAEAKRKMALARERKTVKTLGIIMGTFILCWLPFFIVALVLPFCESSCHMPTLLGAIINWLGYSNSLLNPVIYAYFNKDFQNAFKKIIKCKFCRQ
- Method Summary: Affinity (Ki) at 5HT1A, transfected HEK cells
- Conditions: read-out: Affinity Ki ± SEM at 5HT1A
Assay Readout: Ki (nM)
Please give a number only; it is taken to be in nM.

IN: Give reported Ki for Cc1nn(C)c(C)c1-c1cccc2c1CC[C@H](N(C)C)C2 [(S)-AS-19, reference compound] (5HT1A (Homo sapiens, UniProt P08908))
OUT: 240

IN: Give reported Ki for CN(C)[C@H]1CCc2c(cccc2-c2cccc3ccccc23)C1 [(S)-5-NaT] (5HT1A (Homo sapiens, UniProt P08908))
OUT: 64

IN: Give reported Ki for CCCN(CCC)[C@H]1CCc2c(cccc2-c2ccccc2)C1.Cl [(S)-5-PPT, HCl] (5HT1A (Homo sapiens, UniProt P08908))
OUT: 5.9

IN: Give reported Ki for CN(C)[C@H]1CCc2c(cccc2-c2ccccc2Cl)C1.Cl [(S)-5-CPT, HCl] (5HT1A (Homo sapiens, UniProt P08908))
OUT: 7.5

---

- Method Summary: Plasma and brain concentrations by LC-MS/MS after systemic administration
- Type: in vivo, mouse
- Conditions: mouse, plasma; 3.0 mg/kg subcutaneous, 60 min after injection, mean (SEM); read-out: Plasma concentration
Assay Readout: concentration at 60 min (ng/mL)
Please give a number only; it is taken to be in ng/mL.

IN: Answer with the recorded concentration at 60 min of CN(C)[C@H]1CCc2c(cccc2-c2ccccc2F)C1.Cl [(S)-5-FPT, HCl] only.
OUT: 118

---

- Method Summary: Plasma and brain concentrations by LC-MS/MS after systemic administration
- Assay type: in vivo, mouse
- Conditions: mouse, brain; 3.0 mg/kg subcutaneous, 60 min after injection, mean (SEM); read-out: Brain concentration
Assay Readout: concentration at 60 min (ng/g)
Please give a number only; it is taken to be in ng/g.

IN: Answer with the recorded concentration at 60 min of CN(C)[C@H]1CCc2c(cccc2-c2ccccc2F)C1.Cl [(S)-5-FPT, HCl] only.
OUT: 2160

---

Exercise: for every item that follows, state its recorded Ki.
Please give a number only; it is taken to be in nM.

IN: Give reported Ki for CN(C)[C@H]1CCc2c(cccc2-c2ccccc2Cl)C1.Cl [(S)-5-CPT, HCl] (UniProt P41595)
Sequence (P41595 whole entry): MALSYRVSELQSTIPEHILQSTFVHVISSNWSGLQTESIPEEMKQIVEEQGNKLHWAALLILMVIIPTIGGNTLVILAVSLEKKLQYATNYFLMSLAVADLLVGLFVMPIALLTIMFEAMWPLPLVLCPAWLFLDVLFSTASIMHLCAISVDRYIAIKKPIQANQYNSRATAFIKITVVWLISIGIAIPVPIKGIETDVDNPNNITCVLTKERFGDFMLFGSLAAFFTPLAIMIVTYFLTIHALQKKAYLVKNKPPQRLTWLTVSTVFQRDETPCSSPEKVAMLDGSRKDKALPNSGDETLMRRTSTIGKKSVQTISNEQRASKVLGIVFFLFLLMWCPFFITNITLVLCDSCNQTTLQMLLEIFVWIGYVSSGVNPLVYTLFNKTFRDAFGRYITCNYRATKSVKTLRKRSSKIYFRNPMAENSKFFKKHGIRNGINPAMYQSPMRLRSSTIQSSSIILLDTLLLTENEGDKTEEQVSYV
OUT: 11

IN: Give reported Ki for CN(C)[C@H]1CCc2c(cccc2-c2ccccc2F)C1.Cl [(S)-5-FPT, HCl] (UniProt P41595)
OUT: 60
